# subject-of-test: UniProt:P43115
# experimental-details: Displacement of [3H]PGE2 from human EP3 receptor in buffer
reported-endpoint: IC50 (nM)

Before answering, review these 3 worked examples.
O=C(/C=C/c1cccc2c1N(Cc1ccc3ccccc3c1)C(=O)C2(CO)CO)NS(=O)(=O)c1ccc(F)c(F)c1 | 11.6
O=C(/C=C/c1cccc2c1N(Cc1ccc3ccccc3c1)C(=O)C2)NS(=O)(=O)c1ccc(F)c(F)c1 | 0.4
O=C(/C=C/c1cccc2c1N(Cc1ccc3ccccc3c1)C(=O)C2=O)NS(=O)(=O)c1ccc(F)cc1 | 1.6

a. O=C(/C=C/c1cccc2c1N(Cc1ccc(Cl)cc1Cl)C(=O)C2(F)F)NS(=O)(=O)c1cc(F)c(F)cc1F
b. O=C(/C=C/c1cccc2c1N(Cc1ccc(Cl)cc1Cl)C(=O)C21OCCO1)NS(=O)(=O)c1cc(Cl)c(Cl)s1
c. O=C(/C=C/c1cccc2c1N(Cc1ccc3ccccc3c1)C(=O)C2=O)NS(=O)(=O)c1cc(Cl)c(Cl)s1
d. O=C(/C=C/c1cccc2c1N(Cc1ccc3ccccc3c1)C(=O)C2=O)NS(=O)(=O)c1cc(F)c(F)cc1F
e. O=C(/C=C/c1cccc2c1N(Cc1ccc(Cl)cc1Cl)C(=O)C2=O)NS(=O)(=O)c1cc(Cl)c(Cl)s1
Problem: Ordering: ascending IC50. Please write the labels in the order that was asked for.
Result: a, d, b, e, c

P. O=C(/C=C/c1cccc2c1N(Cc1ccc(F)c(F)c1)C(=O)C2(F)F)NS(=O)(=O)c1ccc(Cl)c(Cl)c1
Q. CC1C(=O)N(Cc2ccc(Cl)cc2Cl)c2c(/C=C/C(=O)NS(=O)(=O)c3cccc(Cl)c3)cccc21 (stereo unspecified)
R. O=C(/C=C/c1cccc2c1N(Cc1ccc(F)c(F)c1)C(=O)C2(F)F)NS(=O)(=O)c1cc(F)c(F)cc1F
Problem: Ascending by IC50, please: list the molecules accordingly. Write the labels in rank order as requested.
Result: Q, P, R

a. O=C(/C=C/c1cccc2c1N(Cc1ccc(F)c(F)c1)C(=O)C2)NS(=O)(=O)c1cc(F)c(F)cc1F
b. CC1C(=O)N(Cc2ccc(F)c(F)c2)c2c(/C=C/C(=O)NS(=O)(=O)c3cccc(Cl)c3)cccc21 (stereo unspecified)
c. CC1C(=O)N(Cc2ccc(Cl)cc2Cl)c2c(/C=C/C(=O)NS(=O)(=O)c3cccs3)cccc21 (stereo unspecified)
d. O=C(/C=C/c1cccc2c1N(Cc1ccc3ccccc3c1)C(=O)C2)NS(=O)(=O)c1cc(Cl)c(Cl)s1
Problem: rank_up(items): orders items by reported IC50 in ascending numerical order. State the ranking by listing the labels in the requested order.
Result: a, d, c, b
(a: 0.7 nM, d: 1.3 nM, c: 2.4 nM, b: 4 nM)

====

# subject-of-test: Prostaglandin E2 receptor EP3 subtype (Homo sapiens, UniProt P43115)
# Sequence (P43115 whole entry): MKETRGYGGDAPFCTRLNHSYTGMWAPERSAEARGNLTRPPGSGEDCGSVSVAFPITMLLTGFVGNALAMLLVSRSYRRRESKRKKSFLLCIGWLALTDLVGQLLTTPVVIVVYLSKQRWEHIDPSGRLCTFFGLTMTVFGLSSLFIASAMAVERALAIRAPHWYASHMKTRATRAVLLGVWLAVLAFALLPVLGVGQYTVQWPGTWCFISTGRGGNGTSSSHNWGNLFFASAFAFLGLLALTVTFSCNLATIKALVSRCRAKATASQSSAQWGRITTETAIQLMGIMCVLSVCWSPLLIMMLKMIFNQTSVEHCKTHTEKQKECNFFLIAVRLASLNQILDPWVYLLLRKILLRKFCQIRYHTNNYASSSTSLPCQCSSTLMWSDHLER
# experimental-details: Displacement of [3H]PGE2 from human EP3 receptor in buffer
pIC50: −log10 of the molar value.
reported-endpoint: pIC50

In the examples that follow, each entry is paired with its recorded pIC50.
O=C(/C=C/c1cccc2c1N(Cc1ccc3ccccc3c1)C(=O)C2O)NS(=O)(=O)c1ccc(F)c(F)c1 (stereo not drawn) | 8.80
O=C(/C=C/c1cccc2c1N(Cc1ccc(Cl)cc1Cl)C(=O)C2(F)F)NS(=O)(=O)c1cc(Cl)c(Cl)s1 | 8.42
O=C(/C=C/c1cccc2c1N(Cc1ccc3ccccc3c1)C(=O)C2=O)NS(=O)(=O)c1ccc(Cl)c(Cl)c1 | 9.00
O=C(/C=C/c1cccc2c1N(Cc1ccc3ccccc3c1)C(=O)C2(F)F)NS(=O)(=O)c1ccc(Cl)cc1 | 8.26

1. O=C(/C=C/c1cccc2c1N(Cc1ccc3ccccc3c1)C(=O)C21OCCO1)NS(=O)(=O)c1cc(Cl)c(Cl)s1
2. O=C(/C=C/c1cccc2c1N(Cc1ccc(Cl)cc1Cl)C(=O)C2)NS(=O)(=O)c1cccs1
3. O=C(/C=C/c1cccc2c1N(Cc1ccc(Cl)cc1Cl)C(=O)C2)NS(=O)(=O)c1cc(F)c(F)cc1F
4. CC1C(=O)N(Cc2ccc3ccccc3c2)c2c(/C=C/C(=O)NS(=O)(=O)c3cccc(Cl)c3)cccc21 (stereo not drawn)
Problem: Order the 4 compounds from highest to lowest pIC50. Lab note: record answer as labels in requested order.
Result: 3, 4, 1, 2

====

Prostaglandin E2 receptor EP2 subtype (Homo sapiens, UniProt P43116): recorded IC50 for assorted compounds
Sequence (P43116 whole entry): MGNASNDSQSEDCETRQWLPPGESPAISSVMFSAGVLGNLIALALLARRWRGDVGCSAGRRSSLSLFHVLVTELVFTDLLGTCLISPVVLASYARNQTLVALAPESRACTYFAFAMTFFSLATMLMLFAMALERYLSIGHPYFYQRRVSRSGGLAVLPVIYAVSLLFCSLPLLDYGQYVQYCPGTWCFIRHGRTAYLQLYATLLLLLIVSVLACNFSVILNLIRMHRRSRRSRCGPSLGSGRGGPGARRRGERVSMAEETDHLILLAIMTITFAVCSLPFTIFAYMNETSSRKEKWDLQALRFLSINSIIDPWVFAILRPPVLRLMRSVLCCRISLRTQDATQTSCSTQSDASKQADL

O=C(/C=C/c1cccc2c1N(Cc1ccc3ccccc3c1)C(=O)C2O)NS(=O)(=O)c1ccc(F)c(F)c1 (configuration not stated) | > 20 µM

Entry under test: O=C(/C=C/c1cccc2c1N(Cc1ccc3ccccc3c1)C(=O)C2O)NS(=O)(=O)c1cc(F)c(F)cc1F (configuration not stated) . Its IC50 was > 20 µM

====

# experimental-details: Half life in rat at 6 mg/kg, iv
# Format: ADME, organism-based
# Set-up: dose 6 mg/kg, route intravenous
# measurement-parameters: in vivo
reported-endpoint: half-life (h)
Answer format: numeric, h implied, no suffix.

Data point: O=C(/C=C/c1cccc2c1N(Cc1ccc3ccccc3c1)C(=O)C2O)NS(=O)(=O)c1ccc(F)cc1 (stereo unspecified) ; half-life = 1.75

====

# experimental-details: Metabolic stability in human liver microsomes assessed as parent compound remaining after 30 mins
# Assay type: ADME, Microsome
# measurement-parameters: read-out: Stability
reported-endpoint: remaining at 0.5 h (%)

Known results for compounds:
CC1C(=O)N(Cc2ccc(Cl)cc2Cl)c2c(/C=C/C(=O)NS(=O)(=O)c3cccc(Cl)c3)cccc21 (stereo unspecified) | 49.5
O=C(/C=C/c1cccc2c1N(Cc1ccc(Cl)cc1Cl)C(=O)C2(F)F)NS(=O)(=O)c1ccc(Cl)c(Cl)c1 | 73.1
O=C(/C=C/c1cccc2c1N(Cc1ccc3ccccc3c1)C(=O)C2)NS(=O)(=O)c1ccc(F)c(F)c1 | 65.9

1. O=C(/C=C/c1cccc2c1N(Cc1ccc(Cl)cc1Cl)C(=O)C2(F)F)NS(=O)(=O)c1cc(Cl)c(Cl)s1
2. O=C(/C=C/c1cccc2c1N(Cc1ccc(Cl)cc1Cl)C(=O)C2)NS(=O)(=O)c1cc(F)c(F)cc1F
3. CC1C(=O)N(Cc2ccc3ccccc3c2)c2c(/C=C/C(=O)NS(=O)(=O)c3cccc(Cl)c3)cccc21 (stereo unspecified)
Problem: Ascending sort, remaining at 0.5 h. Reply: labels, ordered per the request.
Result: 3, 2, 1
(3: 24.8%, 2: 61.6%, 1: 94.4%)

====

# subject-of-test: Prostaglandin E2 receptor EP3 subtype (Homo sapiens)
# experimental-details: Displacement of [3H]PGE2 from human EP3 receptor in buffer
pIC50: −log10 of the molar value.
reported-endpoint: pIC50

Reference set (3 entries):
O=C(/C=C/c1cccc2c1N(Cc1ccc3ccccc3c1)C(=O)C2(F)F)NS(=O)(=O)c1ccc(Cl)c(Cl)c1 | 9.52
O=C(/C=C/c1cccc2c1N(Cc1ccc(Cl)cc1Cl)C(=O)C2)NS(=O)(=O)c1cc(Cl)c(Cl)s1 | 8.54
O=C(/C=C/c1cccc2c1N(Cc1ccc3ccccc3c1)C(=O)C2=O)NS(=O)(=O)c1cccs1 | 7.86

a. O=C(/C=C/c1cccc2c1N(Cc1ccc(F)c(F)c1)C(=O)C2(F)F)NS(=O)(=O)c1cccc(Cl)c1
b. O=C(/C=C/c1cccc2c1N(Cc1ccc(F)c(F)c1)C(=O)C2(F)F)NS(=O)(=O)c1ccc(F)c(F)c1
c. O=C(/C=C/c1cccc2c1N(Cc1ccc3ccccc3c1)C(=O)C2(F)F)NS(=O)(=O)c1ccc(F)c(F)c1
Problem: Let's sort these by pIC50, smallest first. Go ahead? Would you mind listing the labels in the order requested?
Result: a, b, c
(a: 8.30, b: 8.89, c: 9.70)

1. CC1C(=O)N(Cc2ccc(Cl)cc2Cl)c2c(/C=C/C(=O)NS(=O)(=O)c3cc(Cl)c(Cl)s3)cccc21 (configuration not stated)
2. O=C(/C=C/c1cccc2c1N(Cc1ccc(F)c(F)c1)C(=O)C2)NS(=O)(=O)c1cccc(Cl)c1
Problem: Of 1 and 2 , whose reported pIC50 is numerically smaller? Reply with the label of the item you choose.
Result: 1

====

# experimental-details: Metabolic stability in rat liver microsomes assessed as parent compound remaining after 30 mins
# Format: ADME, Microsome
# measurement-parameters: read-out: Stability
reported-endpoint: remaining at 0.5 h (%)

O=C(/C=C/c1cccc2c1N(Cc1ccc(Cl)cc1Cl)C(=O)C2(F)F)NS(=O)(=O)c1cccc(Cl)c1 | 62.2
O=C(/C=C/c1cccc2c1N(Cc1ccc(Cl)cc1Cl)C(=O)C2)NS(=O)(=O)c1cc(F)c(F)cc1F | 50.6

P. O=C(/C=C/c1cccc2c1N(Cc1ccc3ccccc3c1)C(=O)C2O)NS(=O)(=O)c1ccc(F)cc1 (stereo unspecified)
Q. CC1C(=O)N(Cc2ccc(Cl)cc2Cl)c2c(/C=C/C(=O)NS(=O)(=O)c3cc(F)c(F)cc3F)cccc21 (stereo unspecified)
Problem: Lower remaining at 0.5 h: P or Q ? // caller expects the label of the chosen entry
Result: Q
(Q: 22.4%, P: 103%)
